Assay: Dissociation constant by titration with ethanolic NaOH
Format: physicochemical
Conditions: water; aqueous solution; Henderson-Hasselbalch; standard deviation 10^0.04; read-out: dissociation constant (Ka)
measuredEndpoint: pKa
Note: the reply should be a number with no unit written.

Incoming: Fill blank: measured pKa of the compound O=C/C=C/CCCCCCC(=O)O [ODA, 10-oxo-trans-8-decenoic acid] is ____.
Outgoing: 4.68

All values here come from patent US5681738A.
